# PROTOCOL DESCRIPTION: Curing of unsaturated polyester-styrene resin
# TEST CONTEXT: 240° F. (115.6° C.), 1.0 weight per cent
OBSERVED PROPERTY: time to peak exotherm (min)
Numbers only, in min.

Looking up `COC(=O)CNC(=O)N=NC(C)(C)C` , I see its time to peak exotherm listed as 15.8

Notebook: `CC(C)(C)N=NC(C)(C)C(N)=O` , time to peak exotherm read as 5.7

Record CC(C)(N=NC(N)=O)c1ccccc1 [XVIII, Tert.-cumylazoformamide] . Reported time to peak exotherm: 10.3

Entry `CC(C)(C)N=NC1(C(N)=O)CCCCC1` , time to peak exotherm reported as 6.8

Please examine the following record next.
// time to peak exotherm value for CC(C)(C)N=NC(N)=O [Example XIII, tert.-butylazoformamide] : 5.9

# credit: patent US4007165A
